# TGT: A2.1 HLA molecules (Homo sapiens, UniProt P04439, D140Y/D185E/D98H/E176V/E277Q/G131W/G231S/I119V/I121R/I166T/I218V/L300P/L318F/N151K/N90K/P208A/P217A/Q86G/Q94H/R138H/R169H/T345S)
# Format: binding
# Parameters: scale not given here
Could you mark each record 1 if its A2 Bind. falls strictly under 0.06, and -1 if it equals or exceeds it?

Solved cases below.
substance=YALTVVWLL discrete_label=1
substance=RMLTIPQSV discrete_label=1
substance=SMLSPFLPLV discrete_label=-1

Ask: In plain terms, does LMLQAGFFLV come in under 0.06 for A2 Bind.?
Reply: -1

Ask: Here's an entry: RMRGTFSAPL . Is its A2 Bind. below 0.06?
Reply: 1

Ask: Is 0.06 strictly greater than the substance's reported A2 Bind.? substance: FLYGALLLA
Reply: -1

Ask: Determine whether this substance shows A2 Bind. lower than 0.06 (ties excluded): ALAETSYVKV
Reply: 1

Ask: Hello, is A2 Bind. of the following substance strictly smaller than 0.06? KMVELVHFLL
Reply: -1

Ask: is_below(A2 Bind., 0.06) for GMLPVCPLI ?
Reply: 1

Ask: Regarding IISCTCPTV , kindly confirm whether its A2 Bind. is beneath 0.06.
Reply: 1

Ask: Just wondering, is A2 Bind. of VTTEVAFGL below 0.06?
Reply: 1

Ask: Strictly below 0.06 in A2 Bind.? MLQLTVWGI
Reply: -1

Ask: Answer whether the substance KMVELVHFLLL has A2 Bind. strictly less than 0.06
Reply: -1

Ask: Lab note: confirm whether the reported A2 Bind. for this substance is below 0.06, equality not counting. substance: TVWGIKQLQA
Reply: 1

Ask: Hello, is A2 Bind. of the following substance strictly smaller than 0.06? ALTVVWLLV
Reply: 1

Ask: Problem: For the substance KA SEYLQLV , is A2 Bind. under 0.06?
Reply: 1

Ask: Answer whether the substance RLGRNSFEV has A2 Bind. strictly less than 0.06
Reply: 1

Ask: Lab note: A2 Bind. threshold 0.06. Does this substance come in strictly under it? YLPSALNPV
Reply: -1

Ask: Check if A2 Bind. falls below 0.06 for LLGDNQIMV .
Reply: 1

Ask: Confirm or reject: A2 Bind. of KVADLVGFLL lies strictly below 0.06
Reply: 1

Ask: Field: below-cutoff. Rule: recorded A2 Bind. strictly less than 0.06. Subject: RLTGGVFLV
Reply: -1

====

# TGT: HLA-A11 (A*1101) (Homo sapiens, UniProt P04439, A114D/D185E/E176A/F33Y/L180Q/S129P/T187R)
# EXPERIMENT: biochemical
# Format: binding
pIC50: −log10 of the molar value. No end group written: not given here.
So basically: pIC50 at 7 or higher? That is MET. Lower than 7? That is NOT MET.

sequence="STWHWTSDDK [Peptide 1589.43]" discrete_label=MET

Ask: Please tell me: is the sequence LQQTSLEMWR [Peptide 88.0228] at or over 7 in terms of pIC50?
Reply: NOT MET

Ask: Assess whether reported pIC50 for SVRKLVEDR [Peptide 9017.0105] sits at 7 or higher.
Reply: NOT MET

Ask: Hi, just wondering whether WLIKRIRER [Peptide 9017.0122] shows pIC50 of 7 or higher.
Reply: NOT MET

Ask: For this sequence, is measured pIC50 7 or higher? KLGIVTITY [Peptide 88.0428]
Reply: NOT MET

Ask: Dear colleague, could you confirm whether QQMNMCQWIK [Peptide 88.0186] has pIC50 at or above 7?
Reply: MET

Ask: In plain terms: is recorded pIC50 at least 7 for VTIRVGGQLR [Peptide 1516.07] ?
Reply: MET

Ask: Is it the case that GILRQRRAR [Peptide 9017.0114] has pIC50 reaching or exceeding 7?
Reply: NOT MET

Ask: Could you please find out whether VQFKSECEK [Peptide 88.0419] has pIC50 that meets 7 or exceeds it?
Reply: MET

====

# TGT: B*3503 (Homo sapiens, UniProt P01889, A329T/A93T/A95T/C349S/D201E/D98Y/E176V/E187L/E204Q/E69T/I218V/K202T/L119I/Q94N/R155S/R180L/S121R/S35A/S48A/T118I/V127L/V306I/V36M/Y140F/Y91F)
# EXPERIMENT: biochemical
# Type: binding
Could you please report measured IC50 for the items listed next?

compound_structure_string=CC(C)C[C@H](NC(=O)[C@H](C)NC(=O)[C@@H](NC(=O)[C@H](CC(C)C)NC(=O)[C@H](C)NC(=O)[C@@H](NC(=O)[C@@H](NC(=O)[C@H](CCCNC(=N)N)NC(=O)[C@@H]1CCCN1C(=O)[C@H](C)N)[C@@H](C)O)C(C)C)[C@@H](C)O)C(=O)O reported_value="> 30 µM"
compound_structure_string=CC(C)C[C@H](NC(=O)[C@H](C)NC(=O)[C@@H](NC(=O)[C@@H](NC(=O)[C@H](CCCNC(=N)N)NC(=O)[C@@H]1CCCN1C(=O)[C@H](C)N)[C@@H](C)O)C(C)C)C(=O)N[C@H](C(=O)N[C@@H](C)C(=O)O)[C@@H](C)O reported_value="> 30 µM"
compound_structure_string=CC(C)C[C@H](NC(=O)[C@H](Cc1ccccc1)NC(=O)[C@H](CCCCN)NC(=O)[C@@H]1CCCN1C(=O)CNC(=O)[C@@H]1CCCN1C(=O)[C@@H](N)CC(C)C)C(=O)N[C@@H](CCC(N)=O)C(=O)N[C@@H](Cc1ccc(O)cc1)C(=O)O reported_value="> 30 µM"

Okay, next one:
For reference, reported IC50 for CC(C)C[C@H](N)C(=O)N1CCC[C@H]1C(=O)N[C@@H](Cc1ccccc1)C(=O)N[C@@H](CC(=O)O)C(=O)N[C@@H](Cc1ccccc1)C(=O)N[C@H](C(=O)N1CCC[C@H]1C(=O)NCC(=O)N[C@@H](Cc1ccc(O)cc1)C(=O)O)[C@@H](C)O stands at 6.29 µM

====

# TGT: A*0202 (Homo sapiens, UniProt P04439, D140Y/D185E/D98H/E176V/E277Q/G131W/G231S/I119L/I121R/I166T/I218V/L180W/L300P/L318F/N151K/N90K/P208A/P217A/Q67R/Q86G/Q94H/R138H/R169H/T345S)
# EXPERIMENT: biochemical
# Type: binding
No end group written: not given here.
PARAMETER_MEASURED: pIC50
Answers are plain numbers, as −log10 of the molar value.

Solved cases (2 shown):
sequence="ALYWYKTGI [Peptide 86.0176]" parameter_measured=pIC50 reported_value=7.68
sequence="YLIGTQQAT [Peptide 9013.0025]" parameter_measured=pIC50 reported_value=8.59

For each entry beneath this line, provide reported pIC50.
1. IQNDTGFYT [Peptide 9013.0034]
2. RTLQQLMFI [Peptide 1525.23]
3. YTNWSEIYI [Peptide 1578.56]
4. RLTVKTITVSA [Peptide 9013.0319]
5. RQIIGYVIGV [Peptide 9013.0139]
6. ILAEAMSKA [Peptide 1516.09]

Reply:
1. 5.43
2. 5.74
3. 8.44
4. 6.40
5. 8.13
6. 8.46

Can you give me pIC50 for all of these, one by one?
1. RLTVTTITVYA [Peptide 9013.0305]
2. QLSNGNRTLTV [Peptide 9013.0334]
3. TLQATPGPA [Peptide 9013.0028]
4. ALYWYRTGI [Peptide 86.0181]

Reply:
7.64
7.70
5.70
7.62

Each sequence below has a reported value. Please supply its pIC50.
1. FLKGCIISYV [Peptide 1578.43]
2. YLCGIQNSVSA [Peptide 9013.0338]
3. YVSGANLNL [Peptide 9013.0100]
4. ALYWYRTGM [Peptide 86.0189]
5. GMIDDVTAI [Peptide 1578.44]
6. QQHTQELFV [Peptide 9013.0078]

Reply:
[9.07, 7.68, 7.89, 7.89, 8.28, 5.28]

# batch size: 8; output pIC50 per entry
1. TTQDVSLEV [Peptide 1593.54]
2. WLNGQSLPV [Peptide 9013.0090]
3. RVYVCGIQNSV [Peptide 9013.0336]
4. IVNTTYLWWV [Peptide 9013.0196]
5. RILQQLLLI [Peptide 1525.20]
6. QITPLCVTL [Peptide 1516.13]
7. TLVTTITVYA [Peptide 9013.0193]
8. GLFRVYPEL [Peptide 9013.0039]

Reply:
1. 5.63
2. 8.07
3. 9.66
4. 5.84
5. 5.33
6. 6.91
7. 7.96
8. 7.89

Entry MLGVLVGVALI [Peptide 9013.0349] , pIC50 reported as 6.36

Each recorded value in this set is attributed to patent US9340577B2.
